Each entry below carries its reported Kd.
Target: T1, recombinant human activated Factor VII (FVIIa) (human, UniProt P08709 61-212; P08709 213-466, ten glutamate residues of the Gla domain may be gamma-carboxylated)
T1 construct: chains tethered by a disulfide bond; also called Factor VIIa; rFVIIa
T1 sequence 1: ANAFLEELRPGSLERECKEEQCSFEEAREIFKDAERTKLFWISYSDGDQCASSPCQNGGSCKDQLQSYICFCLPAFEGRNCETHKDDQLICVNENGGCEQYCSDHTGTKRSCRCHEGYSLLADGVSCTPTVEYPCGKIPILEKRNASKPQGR
T1 sequence 2: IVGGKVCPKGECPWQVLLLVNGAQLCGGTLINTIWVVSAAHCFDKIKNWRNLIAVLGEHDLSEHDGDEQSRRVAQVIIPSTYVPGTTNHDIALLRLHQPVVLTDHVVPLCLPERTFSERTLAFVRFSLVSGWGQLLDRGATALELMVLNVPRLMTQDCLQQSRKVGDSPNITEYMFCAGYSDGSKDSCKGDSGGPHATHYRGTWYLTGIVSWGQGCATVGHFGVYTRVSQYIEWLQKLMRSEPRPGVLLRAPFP
Experiment: BLI (Fortebio)
Description: All steps were performed in running buffer (20 mM HEPES buffer (pH 7.4), 150 mM NaCl, 5 mM CaCl2, 0.03% Tween 20, 1 mg/ml IgG-free BSA) at […] Antibodies were captured on anti-human tips (AHC, Fortebio) for 3 min at a concentration of 10 ug/ml. […] Following this, association was monitored for 3 min using four different concentrations of VIIa (25 nm, 50 nM, 100 nM, and 200 nM), followed by a 3 mi dissociation. Sensorgrams were analysed using Fortebio data analysis software.
A number alone suffices; assume nM.

Examples from the recorded data:
Query string: State, in one line, measured Kd of VH SEQ ID NO 514 / VL SEQ ID NO 486 (antibody, IgG4, V domains shown, humanized 11F2; IgG4 S228P/kappa) VH: QVQLQESGPGLVEPSDTLSLTCAVSGYSITSDSAWSWIRQPPGKKLEWIGYIQYSGSTNYNPSLKSRVTMSRDTSKNQFSLKLSSVTALDTAVYYCARSVNYYGNSFAVGYWGQGTLVTVSS VL: EIVLTQSPATLSLSPGERATLSCRASQGVSDYLHWYQQKPGQAPRLLIKYASQPATGIPARFSGSGSGTDFTLTISSLEPEDFGVYYCQNGHSFPLTFGQGTKLEIK
Result string: 0.95

Query string: State, in one line, measured Kd of VH SEQ ID NO 546 / VL SEQ ID NO 342 (antibody, IgG4, V domains shown, humanized 11F2; IgG4 S228P/kappa) VH: QVQLQESGPGLVEPSQTLSLTCTVSGYSITSDSAWSWIRQPPGKKLEWIGYIQYSGSTNYNPSLKSRVTISRDTSKNQFSLKLSSVTAADTAVYYCARSVNYYGNSFAVGYWGQGTSVTVSS VL: EIVLTQSPATLSLSPGERATLSCRASQGISDYLHWYQQKPGQAPRLLIKYTSQPATGIPARFSGSGSGRDFTLTISSLEPEDFAVYYCQNGHSFPLTFGAGTKLELK
Result string: 1.2

Continuing:
Query string: State, in one line, measured Kd of VH SEQ ID NO 514 / VL SEQ ID NO 462 (antibody, IgG4, V domains shown, humanized 11F2; IgG4 S228P/kappa) VH: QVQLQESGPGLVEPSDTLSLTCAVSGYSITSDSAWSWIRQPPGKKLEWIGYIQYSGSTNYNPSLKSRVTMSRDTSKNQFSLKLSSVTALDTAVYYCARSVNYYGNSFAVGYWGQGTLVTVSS VL: EIVLTQSPATLSLSPGERATLSCRASQGVSDYLHWYQQKPGQAPRLLIKYASQPATGIPARFSGSGSGTDFTLTISSLEPEDFAVYYCQNGHSFPLTFGAGTKLEIK
Result string: 1.2

Where these numbers come from: patent US20220064329A1
